Test system: Fibroblast
Assay: Multiplex assay against human fibroblast
Type: toxicity, cell-based
Details: 48 h, 1 µM, compound concentration 1 uM, replicate 1
// NB: equality with 30% counts as NO; only Population Tubulin-Different-Phenotype (%) strictly below is YES

{"columns": ["compound", "answer-label"],
 "data": [
  ["CCCC(CCC)C(=O)O [VALPROIC ACID]", "YES"],
  ["Oc1c(CN2CCN(c3ccccn3)CC2)cc(Cl)c2cccnc12", "NO"],
  ["c1cc(OCCCN2CCCCC2)ccc1CN1CCCCC1 [JNJ-5207852]", "YES"]
]}

Please determine if COc1cc(NC(=O)CCN2CCC(OC(=O)Nc3ccccc3-c3ccccc3)CC2)c(Cl)cc1CNC[C@H](O)c1ccc(O)c2[nH]c(=O)ccc12 [BATEFENTEROL] is below 30% in terms of Population Tubulin-Different-Phenotype (%).
NO

Please determine if Cl.Clc1ccc2nsnc2c1NC1=NCCN1 [TIZANIDINE HYDROCHLORIDE] is below 30% in terms of Population Tubulin-Different-Phenotype (%).
YES

Please determine if O=C(O)c1cc2ccccc2c(Cc2c(O)c(C(=O)O)cc3ccccc23)c1O [PAMOIC ACID] is below 30% in terms of Population Tubulin-Different-Phenotype (%).
YES

Please determine if `COc1c(C)cc(NC(=O)c2nn(Cc3ccc(F)cc3)c3c2CN(C(=O)c2ccc[nH]2)C[C@]3(C)C(N)=O)cc1C` is below 30% in terms of Population Tubulin-Different-Phenotype (%).
NO

Please determine if Cc1ccc(F)cc1C(=O)Nc1ccc(C(=O)N2Cc3cccn3Cc3ccccc32)c(Cl)c1 [LIXIVAPTAN] is below 30% in terms of Population Tubulin-Different-Phenotype (%).
YES

Please determine if C[C@@H]1C[C@H]2[C@@H]3CCC4=CC(=O)C=C[C@]4(C)[C@@]3(F)[C@@H](O)C[C@]2(C)[C@@]1(O)C(=O)CO [DEXAMETHASONE] is below 30% in terms of Population Tubulin-Different-Phenotype (%).
NO

Please determine if `COc1cc(C(=O)N(CCCc2ccccc2)Cc2ccc(CC(=O)O)cc2)cc(OC)c1C` is below 30% in terms of Population Tubulin-Different-Phenotype (%).
YES

Please determine if CCNC1(C(N)=O)CCN(c2ncnc3c2nc(-c2ccccc2Cl)n3-c2ccc(Cl)cc2)CC1 [OTENABANT] is below 30% in terms of Population Tubulin-Different-Phenotype (%).
NO

Please determine if O=S(=O)(c1ccccc1)c1cnc2c(N3CCNCC3)cccc2c1 [INTEPIRDINE] is below 30% in terms of Population Tubulin-Different-Phenotype (%).
NO

Please determine if CCCN1CCC[C@@H]2Cc3n[nH]cc3C[C@H]21.Cl [QUINPIROLE HYDROCHLORIDE] is below 30% in terms of Population Tubulin-Different-Phenotype (%).
YES

Please determine if C[C@H](NC(=O)c1c(C(F)F)nn(C)c1Oc1cccc(C(F)(F)F)c1)c1ccc(C(=O)O)cc1 [PALUPIPRANT] is below 30% in terms of Population Tubulin-Different-Phenotype (%).
YES
